system: M17-SYNwt cells; assay: α-synuclein cytotoxicity assay (LDH leakage from paraquat-treated M17-SYNwt cells); format: cell-based, human; conditions: Table 2; inhibition of synuclein toxicity at most effective concentration relative to untreated paraquat cells
property: % inh. (percentage inhibition) (%)
Number in %, nothing else.

{"columns": ["compoundStructure", "property", "endpointValue"],
 "data": [
  ["COc1cccc(Cc2csc(N3CCN(S(=O)(=O)c4cccc(OC)c4)CC3)n2)c1", "% inh. (percentage inhibition)", 130],
  ["Cc1ccc(S(=O)(=O)N2CCN(c3nc(-c4cccs4)cs3)CC2)cc1", "% inh. (percentage inhibition)", 84],
  ["O=[N+]([O-])c1ccc(-c2csc(N3CCN(S(=O)(=O)c4cccs4)CC3)n2)cc1", "% inh. (percentage inhibition)", 79]
]}

Now for the compound whose % inh. (percentage inhibition) we want.
Q: // lookup % inh. (percentage inhibition) | system=M17-SYNwt cells | key= "COc1ccc(S(=O)(=O)N2CCN(c3nc(Cc4cccs4)cs3)CC2)cc1"
Ans: 93

* * *

test system: M17-SYNwt cells; assay: α-synuclein cytotoxicity assay (LDH leakage from paraquat-treated M17-SYNwt cells); type: cell-based, human; details: Table 2; M17-SYNwt cells, paraquat 32 mM, 40 hours, LDH activity
property: pEC50
Would you please state pEC50, meaning minus log10 of the concentration in mol/L, as a bare number?

Q: Requested read-out: pEC50. Entry: "COc1cccc(-c2csc(N3CCN(S(=O)(=O)c4ccc(F)cc4)CC3)n2)c1"
Ans: 6.67

* * *

system: M17-SYNwt cells; assay: α-synuclein cytotoxicity assay (LDH leakage from paraquat-treated M17-SYNwt cells); type: cell-based, human; details: Table 2; inhibition of synuclein toxicity at most effective concentration relative to untreated paraquat cells
property: % inh. (percentage inhibition) (%)
Number in %, nothing else.

Consider the following illustrative entries.
{"columns": ["compound", "unitAnnotation", "endpointValue"],
 "data": [
  ["O=S(=O)(c1ccc2c(c1)OCCO2)N1CCN(c2nc(-c3ccccc3)cs2)CC1 [Compound 69]", "%", 89],
  ["O=S(=O)(c1cccnc1)N1CCN(c2nc(-c3ccc(F)cc3)cs2)CC1 [Compound 54]", "%", 91],
  ["COc1ccc(S(=O)(=O)N2CCN(c3nc(Cc4cccc(F)c4)cs3)CC2)cc1 [Compound 13]", "%", 92],
  ["Cc1n[nH]c(C)c1S(=O)(=O)N1CCN(c2nc(-c3ccc(F)cc3)cs2)CC1 [Compound 55]", "%", 91],
  ["COc1cc(F)ccc1S(=O)(=O)N1CCN(c2nc(-c3ccc(C)cc3)cs2)CC1 [Compound 51]", "%", 88]
]}

Q: Requested read-out: % inh. (percentage inhibition). Entry: COc1cccc(Cc2csc(N3CCN(S(=O)(=O)c4ccsc4)CC3)n2)c1 [Compound 22]
Ans: 89

Q: Requested read-out: % inh. (percentage inhibition). Entry: COc1ccc(-c2csc(N3CCN(S(=O)(=O)c4cccs4)CC3)n2)cc1 [Compound 57]
Ans: 88
